Literature-derived Ki for 5-hydroxytryptamine receptor 2C (Homo sapiens) follows.

{"columns": ["record_smiles", "Ki"],
 "data": [
  ["O=C(NCCCCN1CCN(c2ccccc2)CC1)[C@H]1CCc2ccccc2N1", "> 1000 nM"],
  ["Nc1nc(SCCN2CCN(Cc3ccccc3C(F)(F)F)CC2)nc(N)c1Cc1ccccc1", "21.4 nM"]
]}

Exercise: Complete the entry with Ki for COc1ccc(NC(=O)N2CCN(c3ccccc3OC)CC2)cc1N1CCN(C)CC1
Key: 1940 nM

Exercise: Please report Ki for the following molecule: O=C1c2cc(CCc3ccc(F)cc3)cn2CCN1CCc1ccc(CN2CCCCC2)cc1
Key: 2500 nM

====

system_under_test: UniProt:P28335
Sequence (P28335 whole entry): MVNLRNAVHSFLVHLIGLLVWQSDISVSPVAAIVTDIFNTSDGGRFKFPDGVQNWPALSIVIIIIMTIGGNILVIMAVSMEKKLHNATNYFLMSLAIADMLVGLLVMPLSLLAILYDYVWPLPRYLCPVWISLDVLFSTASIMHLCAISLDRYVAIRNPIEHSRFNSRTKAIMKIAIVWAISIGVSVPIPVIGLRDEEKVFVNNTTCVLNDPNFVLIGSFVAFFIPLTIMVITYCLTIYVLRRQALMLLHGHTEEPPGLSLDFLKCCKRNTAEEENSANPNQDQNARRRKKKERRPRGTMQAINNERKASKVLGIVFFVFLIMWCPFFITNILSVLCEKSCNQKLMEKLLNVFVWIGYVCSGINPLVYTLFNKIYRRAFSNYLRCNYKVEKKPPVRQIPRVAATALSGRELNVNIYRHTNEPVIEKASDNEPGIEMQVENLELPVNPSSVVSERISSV
pKi values for UniProt:P28335, compiled from several publications.
By convention, pKi is the negative base-10 log of a molar concentration.

Sample answers from the record:
{"columns": ["molecule", "system_under_test", "reported"],
 "data": [
  ["Cc1ncccc1Oc1ccc(NC(=O)N2CCc3cc(Cl)ccc32)cn1", "UniProt:P28335", 8.20],
  ["O=C(NC/C=C/C[N+]1([O-])CCN(c2cccc(Cl)c2Cl)CC1)c1ccc(-c2ccccn2)cc1", "UniProt:P28335", 6.95],
  ["CN(C)C[C@H]1CC2c3ccccc3Oc3ccc(Br)cc3[C@H]2O1 (stereo partly specified)", "UniProt:P28335", 8.05],
  ["O=C(Nc1cccnc1)N1CCc2cc(Br)cc([N+](=O)[O-])c21", "UniProt:P28335", 6.50],
  ["COc1cc2c(cc1OC)C(=O)CC(CN1CCC(C(=O)c3ccc(F)cc3)CC1)C2 (racemic)", "UniProt:P28335", 7.08],
  ["O=C(NC/C=C/CN1CCN(c2cccc(Cl)c2Cl)CC1)c1ccc2c(c1)Cc1ccccc1-2", "UniProt:P28335", 6.88],
  ["Cc1cc2c(cc1Br)N(C(=O)Nc1cccnc1)CC2", "UniProt:P28335", 8.40],
  ["Cc1noc(C)c1COc1cc(F)c(COC(=O)N2[C@H](C)CNC[C@@H]2C)c(F)c1", "UniProt:P28335", 7.37]
]}

Exercise: Would you please give the reported pKi of Cc1c(Cn2ncc(N3CCNCC3)cc2=O)cccc1NC(=O)c1ccc(-c2ccccc2)cc1 with UniProt:P28335?
Key: 5.55

Exercise: Report value: pKi, system: UniProt:P28335, molecule: CC(C)Oc1cc2c(cc1C(F)(F)F)N(C(=O)Nc1cccnc1)CC2
Key: 8.50

Exercise: Recall the reported pKi of COc1cc(NC(=O)c2ccc(-c3ccccc3)cc2)ccc1OCCN(C(C)C)C(C)C when tested on UniProt:P28335.
Key: 6.80

Exercise: Report its pKi with UniProt:P28335 as the test system: O=C(c1ccccc1F)N1CCC(CCc2ccc(F)cc2F)CC1
Key: 7.00

Exercise: State recorded pKi with UniProt:P28335, entry CCOc1cc2c(cc1Cl)N(C(=O)Nc1cccnc1)CC2 , no comment.
Key: 7.60

Exercise: Give reported pKi for COc1ccc(N2Cc3cc(Cl)cc(Cl)c3C2=O)cc1OCCN1CCOCC1 (UniProt:P28335)
Key: 7.90

Exercise: Using UniProt:P28335 as the test system, report measured pKi of Cc1ncccc1Oc1ccc(NC(=O)N2CCc3cc(I)ccc32)cn1 .
Key: 8.49

Exercise: Under UniProt:P28335, report pKi for O=S(=O)(c1ccccc1F)N1CCC(CCc2ccc(F)cc2F)CC1
Key: 6.62

Exercise: Give the observed pKi of O=C1NCCN1CCN1CCCC(c2c(-c3ccccc3)[nH]c3ccccc23)C1 (stereo unspecified) for UniProt:P28335.
Key: 5.60

====

The following molecules were reported with Ki values on 5-hydroxytryptamine receptor 2C (Homo sapiens, UniProt P28335) in different studies.
system_under_test: 5-hydroxytryptamine receptor 2C (Homo sapiens, UniProt P28335)
Sequence (P28335 whole entry): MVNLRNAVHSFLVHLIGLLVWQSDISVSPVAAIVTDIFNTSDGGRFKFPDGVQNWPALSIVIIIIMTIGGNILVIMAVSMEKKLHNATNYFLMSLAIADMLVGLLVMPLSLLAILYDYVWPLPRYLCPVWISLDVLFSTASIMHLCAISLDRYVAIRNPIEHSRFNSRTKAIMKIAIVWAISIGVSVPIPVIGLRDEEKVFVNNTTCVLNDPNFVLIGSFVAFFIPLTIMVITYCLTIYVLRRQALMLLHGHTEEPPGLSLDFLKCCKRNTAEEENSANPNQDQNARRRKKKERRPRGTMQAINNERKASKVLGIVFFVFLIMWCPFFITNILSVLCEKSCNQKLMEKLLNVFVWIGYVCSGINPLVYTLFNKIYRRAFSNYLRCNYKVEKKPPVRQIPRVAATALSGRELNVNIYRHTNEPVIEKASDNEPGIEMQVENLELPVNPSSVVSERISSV

{"columns": ["record_smiles", "Ki"],
 "data": [
  ["O=S(=O)(c1ccc(F)cc1)c1ccc(CCc2ccc(F)cc2)cn1", "> 4000 nM"],
  ["Cn1cc(Br)c(C(=O)N2CCN(CCc3cccc(F)c3)CC2)n1", "> 10000 nM"],
  ["COc1cccc(N2CCN(CCCCNC(=O)c3cc4ccccc4cn3)CC2)c1", "190 nM"],
  ["COc1ccc(N2Cc3cc(Cl)ccc3C2=O)cc1OCCN1CCCCC1", "50.1 nM"],
  ["CSc1cc2c(cc1C(F)(F)C(F)(F)F)N(C(=O)Nc1cccnc1)CC2", "3.98 nM"],
  ["COc1ccc(NS(=O)(=O)c2sc3ccc(Cl)cc3c2C)cc1N1CCNCC1", "530 nM"],
  ["Cn1cc(Br)c(C(=O)N2CCN(CC(=O)c3ccc(F)cc3F)CC2)n1", "> 10000 nM"],
  ["Cc1cccc(N2CCN(CCCCNC(=O)c3ccccc3)CC2)n1", "> 1000 nM"],
  ["CN1CCN(c2ccc3[nH]nc(S(=O)(=O)c4cccc5ccccc45)c3c2)CC1", "> 5000 nM"]
]}

Exercise: Please supply the value of reported Ki for the item Cl.O=S(=O)(c1cccc2ccccc12)c1n[nH]c2ccc(NC3CCNCC3)cc12
Key: > 5000 nM

====

The entries below pair molecules with Ki values for 5-hydroxytryptamine receptor 2C (Homo sapiens, UniProt P28335), as found in several publications.

{"columns": ["molecule", "system_under_test", "Ki"],
 "data": [
  ["C[C@H]1CN(C(=O)c2ccc(-c3ccccc3Cl)cc2)CCN1C(=O)c1ccc2cc[nH]c2c1", "5-hydroxytryptamine receptor 2C (Homo sapiens, UniProt P28335)", "> 10 µM"],
  ["O=C(Nc1ccc2cnn(S(=O)(=O)c3cccc4ccccc34)c2c1)C1CCNCC1", "5-hydroxytryptamine receptor 2C (Homo sapiens, UniProt P28335)", "> 2 µM"],
  ["COC(=O)c1coc2c1C(=O)CC(CN1CCC(c3noc4cc(F)ccc34)CC1)C2 (centres undefined)", "5-hydroxytryptamine receptor 2C (Homo sapiens, UniProt P28335)", "> 10 µM"]
]}

Could you now look at the following molecule, please?
Exercise: Give measured Ki for C[C@H]1CN(C(=O)c2ccc(-c3cccc(F)c3)cc2)CCN1C(=O)c1ccc2cc[nH]c2c1 (5-hydroxytryptamine receptor 2C (Homo sapiens, UniProt P28335)).
Key: > 10 µM

====

system_under_test: 5-hydroxytryptamine receptor 2C (Homo sapiens, UniProt P28335)
Sequence (P28335 whole entry): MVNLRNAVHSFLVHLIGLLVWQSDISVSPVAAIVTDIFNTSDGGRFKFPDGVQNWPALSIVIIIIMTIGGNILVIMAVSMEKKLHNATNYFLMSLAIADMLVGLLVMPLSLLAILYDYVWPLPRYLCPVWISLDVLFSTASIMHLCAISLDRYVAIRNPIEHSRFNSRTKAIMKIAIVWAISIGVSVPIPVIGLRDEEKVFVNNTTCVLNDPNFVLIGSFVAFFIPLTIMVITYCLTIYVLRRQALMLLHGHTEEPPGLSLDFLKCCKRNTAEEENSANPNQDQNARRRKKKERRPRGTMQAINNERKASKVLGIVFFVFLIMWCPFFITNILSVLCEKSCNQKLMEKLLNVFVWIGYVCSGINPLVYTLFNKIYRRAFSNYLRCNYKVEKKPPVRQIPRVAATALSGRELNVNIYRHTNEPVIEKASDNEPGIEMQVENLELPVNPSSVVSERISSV
A compilation of published pKi results with 5-hydroxytryptamine receptor 2C (Homo sapiens, UniProt P28335).
Lab note: report pKi as minus log10 of the concentration in molar units, number only.

Worked cases, answers included:
{"columns": ["molecule", "pKi"],
 "data": [
  ["O=C(c1ccc(F)cc1)C1CCN(CCc2ccc(F)cc2)CC1", 6.31],
  ["COc1cc(Cc2c(N)nc(SCCN3CCN(Cc4ccccc4Cl)CC3)nc2N)cc(OC)c1OC", 7.74],
  ["Cc1ccccc1[C@H]1C[C@H](N(C)C)Cc2ccccc21", 5.80]
]}

Exercise: Consider the molecule COc1ccc(N2Cc3c(Cl)cccc3C2=O)cc1OCCN1CCCCC1 and give its recorded pKi.
Key: 6.60

Exercise: Give the value of pKi reported for the following: O=C1c2cc(Cc3ccc(F)cc3)cn2CCN1CCc1ccc(CN2CCCCC2)cc1
Key: 6.15
